Assay: Light stability of printed patches (Weather-Ometer, xenon lamp)
Assay type: physicochemical
Design: key: A: excellent; B: good; C: satisfactory; D: unsatisfactory
Conditions: F: EPSON Premium Glossy Photo Paper (nanoporous); 20 megalux hours
Readout name: Light Stability (Class) on Recording Sheet F

These solved cases illustrate the format of a correct answer.
{"Compound": "O=S(=O)([O-])CCNc1nc(Nc2ccc(N=Nc3ccc4cc(S(=O)(=O)[O-])cc(S(=O)(=O)[O-])c4c3)cc2)nc(Nc2ccc(N=Nc3ccc4cc(S(=O)(=O)[O-])cc(S(=O)(=O)[O-])c4c3)cc2)n1.[Na+].[Na+].[Na+].[Na+].[Na+] [Dye No. 16]", "Measured result": "B"}
{"Compound": "CN(CCS(=O)(=O)[O-])c1nc(Nc2ccc(N=Nc3ccc4cc(S(=O)(=O)[O-])cc(S(=O)(=O)[O-])c4c3)cc2)nc(Nc2ccc(N=Nc3ccc4cc(S(=O)(=O)[O-])cc(S(=O)(=O)[O-])c4c3)cc2)n1.[Na+].[Na+].[Na+].[Na+].[Na+] [Dye No. 17]", "Measured result": "B"}
{"Compound": "O=S(=O)([O-])CCCSc1nc(Nc2ccc(N=Nc3cc(S(=O)(=O)[O-])c4cccc(S(=O)(=O)[O-])c4c3)cc2)nc(Nc2ccc(N=Nc3cc(S(=O)(=O)[O-])c4cccc(S(=O)(=O)[O-])c4c3)cc2)n1.[Na+].[Na+].[Na+].[Na+].[Na+] [Dye No. 10]", "Measured result": "B"}
{"Compound": "Cc1cc(Nc2nc(NCCO)nc(Nc3ccc(/N=N/c4cc(S(=O)(=O)[O-])c5cccc(S(=O)(=O)[O-])c5c4)c(C)c3)n2)ccc1/N=N/c1cc(S(=O)(=O)[O-])c2cccc(S(=O)(=O)[O-])c2c1.[Na+].[Na+].[Na+].[Na+] [Dye No. II, Direct Yellow 86, reference compound]", "Measured result": "A"}
{"Compound": "O=S(=O)([O-])CCNc1nc(Nc2ccc(N=Nc3cc(S(=O)(=O)[O-])c4cccc(S(=O)(=O)[O-])c4c3)cc2)nc(Nc2ccc(N=Nc3cc(S(=O)(=O)[O-])c4cccc(S(=O)(=O)[O-])c4c3)cc2)n1.[Na+].[Na+].[Na+].[Na+].[Na+] [Dye No. 11]", "Measured result": "A"}

Ask: Write down Light Stability (Class) on Recording Sheet F measured for item O=S(=O)([O-])c1cc(/N=N/c2ccc(Nc3nc(NCCCN4CCOCC4)nc(Nc4ccc(/N=N/c5cc(S(=O)(=O)[O-])c6cccc(S(=O)(=O)[O-])c6c5)cc4)n3)cc2)cc2c(S(=O)(=O)[O-])cccc12.[Na+].[Na+].[Na+].[Na+] [Dye No. IV, reference compound]
Result: B

Ask: Answer with the recorded Light Stability (Class) on Recording Sheet F of O=S(=O)([O-])CCCSc1nc(Nc2ccc(N=Nc3ccc4cc(S(=O)(=O)[O-])cc(S(=O)(=O)[O-])c4c3)cc2)nc(Nc2ccc(N=Nc3ccc4cc(S(=O)(=O)[O-])cc(S(=O)(=O)[O-])c4c3)cc2)n1.[Na+].[Na+].[Na+].[Na+].[Na+] [Dye No. 15] only.
Result: B

Ask: Identify Light Stability (Class) on Recording Sheet F associated with the compound O=S(=O)([O-])c1cc(/N=N/c2ccc(Nc3nc(NCCO)nc(Nc4ccc(/N=N/c5cc(S(=O)(=O)[O-])c6cccc(S(=O)(=O)[O-])c6c5)cc4)n3)cc2)cc2c(S(=O)(=O)[O-])cccc12.[Na+].[Na+].[Na+].[Na+] [Dye No. I, reference compound]
Result: A

Ask: // Input: O=C([O-])c1cc(Nc2nc(Nc3ccc(N=Nc4cc(S(=O)(=O)[O-])c5cccc(S(=O)(=O)[O-])c5c4)cc3)nc(Nc3ccc(N=Nc4cc(S(=O)(=O)[O-])c5cccc(S(=O)(=O)[O-])c5c4)cc3)n2)cc(C(=O)[O-])c1.[Na+].[Na+].[Na+].[Na+].[Na+].[Na+] [Dye No. 18] . Output its Light Stability (Class) on Recording Sheet F only.
Result: B

Ask: Please give the documented Light Stability (Class) on Recording Sheet F of CN(CCS(=O)(=O)[O-])c1nc(Nc2ccc(N=Nc3cc(S(=O)(=O)[O-])c4cccc(S(=O)(=O)[O-])c4c3)cc2)nc(Nc2ccc(N=Nc3cc(S(=O)(=O)[O-])c4cccc(S(=O)(=O)[O-])c4c3)cc2)n1.[Na+].[Na+].[Na+].[Na+].[Na+] [Dye No. 14]
Result: B
